Each recorded value in this set is attributed to PubChem BioAssay AID904.

procedure text: qHTS Screen for Compounds that Selectively Target Cancer Cells with p53 Mutations: Cytotoxicity of p53 Null Cells at the Nonpermissive Temperature; further: nearly all actives have a fitted effect of over 50% in size; further: potency means the concentration at half of the fitted maximal effect
measurement context: H1299 p53-null (neo) cells, 39C, ATPlite viability, 24 h; series mostly up to 46.1 µM
The whole screen tested about 55,000 compounds, of which about 530 (0.96%) were called active. Not shown: some 7% with an inconclusive outcome. This is one part of a sample in which actives are shown more often than they occur.
measured parameter: Potency

molecule=CCC(CC)c1nn2cc(-c3ccccc3)nc2s1 measured_parameter=Potency reported_measurement="7.94 µM (active)"
molecule=CCc1ccc(CNC(=O)C2CCN(c3nn4cc(-c5ccc(F)cc5)nc4s3)CC2)cc1 measured_parameter=Potency reported_measurement=inactive
molecule=CCOc1ccc(NC(=O)Cn2cc(C(=O)c3ccc(C)cc3)c(=O)c3cc4c(cc32)OCCO4)cc1 measured_parameter=Potency reported_measurement=inactive
molecule=Cc1ccccc1CSc1nc2c([nH]c3ccccc32)c(=O)n1C measured_parameter=Potency reported_measurement=inactive
molecule="COc1ccc(S(=O)(=O)NCC(c2ccco2)N2CCOCC2)cc1 (stereo not given)" measured_parameter=Potency reported_measurement=inactive
molecule=Cc1nn2c(=O)cc(COC(=O)c3cccc(NC(=O)COc4ccccc4Cl)c3)nc2s1 measured_parameter=Potency reported_measurement="6.31 µM (active)"
molecule="COc1ccc(CCN2C(=O)C3CC=C(C)CC3C2=O)cc1OC (stereo not given)" measured_parameter=Potency reported_measurement=inactive
molecule=CCN1CCN(C(=O)C2(NC(=O)Nc3cccc(F)c3)CCCCC2)CC1 measured_parameter=Potency reported_measurement=inactive
molecule=CC(C)S(=O)(=O)c1oc(-c2ccc(F)cc2)nc1S(=O)(=O)c1ccc(F)cc1 measured_parameter=Potency reported_measurement="12.6 µM (active)"

In: Need Potency of O=C(Cc1ccc(Cl)cc1)NCC(c1cccs1)S(=O)(=O)c1ccc(Cl)cc1 (stereo not given) , thanks.
Out: inactive

* * *

procedure text: qHTS Screen for Compounds that Selectively Target Cancer Cells with p53 Mutations: Cytotoxicity of p53 Null Cells at the Nonpermissive Temperature; further: nearly all actives have a fitted effect of over 50% in size
measurement context: H1299 p53-null (neo) cells, 39C, ATPlite viability, 24 h; series mostly up to 46.1 µM
Hit rate of the full screen: of about 55,000 compounds, about 530 (0.96%) were called active. Roughly 7% stayed inconclusive and do not appear here. Calls follow the shape of the dose curve; as a rule, active = well fitted cell-killing curve with a large enough effect; inconclusive = small, poorly fitted or top-dose-only effect; inactive = no such curve, though single readings can be large or run the other way. Many of the other results were omitted from the sample, so actives are more common in it than they were.
The categories you may choose from are yes (1) = active, no (0) = inactive

Solved cases below.
compound=CCOc1ccc(NC(=O)CN(Cc2ccccc2)S(=O)(=O)c2ccc(Cl)cc2)cc1 category="no (0)"
compound=CCOc1ccc(N(Cc2ccccc2)C(=O)c2nc(S(C)(=O)=O)ncc2Cl)cc1 category="yes (1)"
compound=O=C(NC1CCCCC1)c1ccc(Cn2c(SCc3ccccc3)nc3cccnc32)cc1 category="no (0)"

In: Given CCOc1ccc(N(Cc2ccccc2)C(=O)c2nc(SCC)ncc2Cl)cc1 , state the outcome it received in this test.
Out: no (0)

In: What about O=C(N/N=C/c1cccc([N+](=O)[O-])c1)C1CC(=O)N(c2ccc(Br)cc2)C1 (stereo not given) ?
Out: no (0)

* * *

procedure text: qHTS Screen for Compounds that Selectively Target Cancer Cells with p53 Mutations: Cytotoxicity of p53 Null Cells at the Nonpermissive Temperature; further: nearly all actives have a fitted effect of over 50% in size;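 on activity, negative = cell killing: 0% = DMSO only and -100% = full killing by 100 µM tamoxifen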
measurement context: H1299 p53-null (neo) cells, 39C, ATPlite viability, 24 h; series mostly up to 46.1 µM
In all, about 55,000 compounds went through this assay and about 530 (0.96%) were called active. Not shown: some 7% with an inconclusive outcome. What follows is part of a selection rich in actives, with near analogues and random picks from the rest.
measured parameter: activity, negative = cell killing

Completed entries (count: 2):
molecule=COc1cc(OC)c(C(=O)Nc2ccccc2-c2ccccc2)cc1OC reported_measurement="18.9% [at 1.84 µM] (inactive)"
molecule="COc1ccc(NC(=O)CC2C(=O)OCC3CCCCN32)cc1Cl (stereo unspecified)" reported_measurement="14% [at 1.84 µM] (inactive)"

In: Quick one: activity, negative = cell killing for N#Cc1c(-c2ccc(F)cc2)cc(C2CC2)nc1SCC(=O)c1cccs1 ?
Out: -5.05% [at 1.84 µM] (inactive)
